Where do the numbers come from? From PubChem BioAssay (NCI).

- Test system: MDA-MB-468 breast
- PROTOCOL SUMMARY: NCI tumour cell line growth inhibition, 48 h
Can you tell me TGI for the items I'm about to list?

Field: example entries. Status: answers known.
O=C(CCN1CCCC1)Nc1ccc2c(Nc3ccccc3)c3ccccc3nc2c1 :: 1600 nM
COc1cc(-n2cc(-c3cc(O)c(C/C=C(\C)CCC=C(C)C)c(O)c3)nn2)cc2c1O[C@]1(C)CC[C@@H](O)C(C)(C)[C@H]1C2 :: 4890 nM
O=C(Nc1ccccc1O)c1ccc(CNC(=O)c2ccsc2Nc2ccnc(C(F)(F)F)c2)cc1 :: 3530 nM

For the compound shown here, COc1ccc(-c2nc3c(c(=O)n2C(C)=O)C(c2ccc(Cl)cc2)c2sc4c(Cl)cccc4c2O3)cc1 (centres undefined) , give the reported TGI.
571 nM

---

- System: MDA-MB-468 breast
- PROTOCOL SUMMARY: NCI tumour cell line growth inhibition, 48 h; in the data active = GI50 below about 0.43 µM; inactive = the rest
Permitted responses: 1 (yes) = active, 0 (no) = inactive

CCC(=O)c1cc([N+](=O)[O-])c(Br)s1 :: 0 (no)
O=C(Nc1ccc(Cl)cc1)Nc1ccccc1CNc1nc(Nc2ccc(OCCN3CCCC3)cc2)ncc1Cl :: 0 (no)
NC(=O)c1cc(I)ccc1NC(=O)COc1ccccc1 :: 1 (yes)

Test call for this compound, please: CC(=O)Nc1ccc(-c2cn(-c3cccc(C(=O)Nc4cc(C(F)(F)F)cc(C(F)(F)F)c4)c3)nn2)cn1
0 (no)

Test call for this compound, please: CN1CCN(c2ccc(Nc3nc(NCCCNC(=O)C4CCCCC4)c4sccc4n3)cc2)CC1
0 (no)

Test call for this compound, please: COc1ccc(NC(=O)c2sc3nc4c(cc3c2N)CCCC4)cc1
0 (no)

Test call for this compound, please: O=C(Cc1ccc(/C=C/C(=O)c2ncc[nH]2)cc1)Nc1ccc(C(F)(F)F)cc1
0 (no)

Test call for this compound, please: CCO/C=N/C1=C(C#N)C(c2ccc(Cl)cc2)c2sc3c(CC)cccc3c2O1 (configuration not stated)
0 (no)

Test call for this compound, please: Fc1ccc(F)c(CNc2nc(SCCN3CCOCC3)nc3c2cnn3CC(Cl)c2ccc(Br)cc2)c1 (configuration not stated)
0 (no)

Test call for this compound, please: COc1ccc(-c2nc3c(c(=O)n2C(C)=O)C(c2ccc(Cl)cc2)c2sc4c(Cl)cccc4c2O3)cc1 (configuration not stated)
1 (yes)

Test call for this compound, please: COc1cc2cc(Oc3ccc(NC(=O)c4cccc5c4OCCO5)cc3)c(C)nc2cc1OC
0 (no)

Test call for this compound, please: COc1ccccc1/C=C\C(=O)c1ccccc1
0 (no)

Test call for this compound, please: O=C(Nc1ccccc1O)c1ccc(CNC(=O)c2ccsc2Nc2ccnc(C(F)(F)F)c2)cc1
0 (no)

Test call for this compound, please: O=C(/C=C/c1cn(-c2ccccc2)nc1-c1ccc([N+](=O)[O-])cc1)c1ccc(Cl)cc1
0 (no)

---

- Tested on: MALME-3M melanoma
- PROTOCOL SUMMARY: NCI tumour cell line growth inhibition, 48 h
READOUT KIND: GI50

Fc1ccc(F)c(CNc2nc(SCCN3CCOCC3)nc3c2cnn3CC(Cl)c2ccc(Br)cc2)c1 (centres undefined) :: 1890 nM
CN1CCN(c2ccc(Nc3nc(NCCCNC(=O)C4CCCCC4)c4sccc4n3)cc2)CC1 :: 7310 nM

Kindly give each listed record's GI50.
1. CC(=O)Nc1ccc(-c2cn(-c3cccc(C(=O)Nc4cc(C(F)(F)F)cc(C(F)(F)F)c4)c3)nn2)cn1
2. CN(C)CCCNC(=O)c1cc(NC(=O)c2cc(NC(=O)c3ccc(C#Cc4ccccc4)cc3)cn2C)cn1C

1. 3260 nM
2. 2110 nM

---

- System: MDA-MB-468 breast
- PROTOCOL SUMMARY: NCI tumour cell line growth inhibition, 48 h
READOUT KIND: TGI (µM)
Answers are plain numbers, in µM.

Field: example entries. Status: answers known.
CCc1cccc(CC)c1/C=C/c1cncc(C(=O)NC)c1 :: 20.6
CCNC(=O)Oc1ccc(/C(=C(/C)c2ccc(OC)cc2)c2ccc(OCCN3CCCCCC3)cc2)cc1 :: 8.09
O=C(Nc1ccc(Cl)cc1)Nc1ccccc1CNc1nc(Nc2ccc(OCCN3CCCC3)cc2)ncc1Cl :: 2.28
COc1ccccc1/C=C\C(=O)c1ccccc1 :: 19.1
O=C(Cc1ccc(/C=C/C(=O)c2ncc[nH]2)cc1)Nc1ccc(C(F)(F)F)cc1 :: 6.84

Kindly give each listed record's TGI.
1. Fc1c[c-]c(-c2ccccn2)c(F)c1.[CH3-].[Pt+2].c1ccc(P(C[PH+](c2ccccc2)c2ccccc2)c2ccccc2)cc1
2. COc1cc2cc(Oc3ccc(NC(=O)c4cccc5c4OCCO5)cc3)c(C)nc2cc1OC

[0.946, 48.7]

---

Can you tell me GI50 for the items I'm about to list?
- Test system: MDA-MB-468 breast
- PROTOCOL SUMMARY: NCI tumour cell line growth inhibition, 48 h

Kindly give each listed record's GI50.
1. CN(C)CCCC1(c2ccc(F)cc2)OCc2cc(-c3cncc4ccccc34)ccc21 (stereo not drawn)
2. Oc1[nH]c2ccccc2c1/C=c1/cc2c(c(-c3ccc(C(F)(F)F)cc3)n1)=Nc1ccccc1-2
3. O=C1C=C(N2CCN(c3ccccn3)CC2)C(=O)c2c(O)ccc(O)c21

1: 1.55 µM; 2: 3.82 µM; 3: 2.75 µM

---

Can you tell me TGI for the items I'm about to list?
- Tested on: MDA-MB-468 breast
- PROTOCOL SUMMARY: NCI tumour cell line growth inhibition, 48 h
Answers are plain numbers, in µM.

Field: example entries. Status: answers known.
Cc1n(Cc2ccc3ccccc3c2)c(Cl)c(Cl)[n+]1Cc1ccc2ccccc2c1 :: 2.92
CCCCCCOc1ccc(C(=N)N(CCCC)CCCC)c2ccccc12 :: 2.01
C1=C2CNCC3=Cc4ccc5ccccc5c4OC23Oc2c1ccc1ccccc21 :: 7.55

For the compound shown here, Cn1cnc([N+](=O)[O-])c1Sc1nc(N)nc2nc[nH]c12 , give the reported TGI.
6.11
